- measuredTarget: Tyrosine-protein kinase SYK (Homo sapiens, UniProt P43405)
- assayExplanation: Inhibitory activity against Syk C-terminal SH2 (at 10 mM)
- Format: functional
attributeMeasured: IC50 (mM)
Numbers only, in mM.

Param readout= IC50; system= Tyrosine-protein kinase SYK (Homo sapiens, UniProt P43405); entry= O=C(O)CCCCCNS(=O)(=O)/C=C/c1ccccc1 ; returns value. 8

----------
- measuredTarget: Tyrosine-protein kinase SYK (Homo sapiens)
- assayExplanation: Inhibitory activity against Syk C-terminal SH2 domain in in-silico screening
- Type: functional
attributeMeasured: pIC50
One number for each entry, as −log10 of the molar value.

Data request, read-out pIC50, for NC(Cc1ccc(CP(=O)(O)O)cc1)C(=O)O (stereo unspecified) 1.85
